- System: DCAMKL3
- Construct: gene DCLK3
- measurementParameters: concentration: 1 μM, replicates: in singlicate; n = 1;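 note: KINOMEscan kinase panel screen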
quantityKind: %Inh (%)
State just the number; it will be interpreted in %.

Task: Request the reported %Inh associated with Cc1nn2c(=O)cc(N3CCO[C@H](C)C3)nc2n1Cc1cccc(Cl)c1Cl [GSK2373693]
Result: 34

Task: Entry to check: Cc1ccc(Nc2ccnc(Nc3ccc(C)c(F)c3)n2)cc1O.Cl [GW582868]
Result: 0

Task: Entry to check: CSc1ccc(NC2=C(c3ccc(Cl)cc3)C(=O)NC2=O)cc1 [SB-317658]
Result: 12

Task: Entry to check: Cc1ccccc1CC(=O)N1CCc2cc(-c3cn(C)c4ncnc(N)c34)ccc21 [GSK2603346]
Result: 0

Task: Entry to check: CN(c1ccc(NC(=O)N2CCN(CCCN3CCOCC3)CC2)cc1)c1ccnc(Nc2ccc(CS(C)(=O)=O)cc2)n1.Cl [GW830899]
Result: 5

Task: Entry to check: Cc1ccc(NC(=O)c2ccnc(N3CCCCC3)c2)cc1-c1ccc(C(=O)NCC2CC2)cc1 [GW775610]
Result: 4

Task: Entry to check: O=C(Nc1n[nH]c2cc(-c3cccs3)ccc12)C1CC1 [SB-731284]
Result: 0

Task: Entry to check: COc1ccc(C2=C(Nc3cccc(O)c3)C(=O)NC2=O)cc1 [SB-390766]
Result: 1

Task: Entry to check: Cn1cc(-c2cnc(N)c3c(-c4ccc5c(c4)CCN5C(=O)Cc4ccccc4)csc23)cn1 [GSK2593074]
Result: 5

Task: Entry to check: Cl.O=C(Nc1ccc(Oc2ccc3[nH]c(NC(=O)c4ccco4)nc3c2)cc1)Nc1cc(C(F)(F)F)ccc1F [GW683134]
Result: 0

Task: Entry to check: CN(C)CCNS(=O)(=O)c1ccc(-c2ccnc3[nH]ccc23)cc1 [GSK977620]
Result: 15

Task: Entry to check: COc1cc(Nc2ccnc3cc(-c4ccncc4)ccc23)cc(OC)c1OC.Cl [GW494610]
Result: 0

Task: Entry to check: Cc1ccc(O)cc1Nc1ccnc2cc(-c3ccc(CN4CCCCC4)o3)ccc12 [GW557777]
Result: 0

Task: Entry to check: CCNC(=O)/C=C/c1n[nH]c2cc(Sc3ccccc3C(=O)NC)ccc12
Result: 30

Task: Entry to check: Fc1cc(Cl)ccc1Nc1ccnc2cc(-c3ccc(CN4CCSCC4)o3)ccc12 [GW560106]
Result: 42

Task: Entry to check: CN(c1ccc2c(c1)nc(NCc1ccccc1)n2C)c1ccnc(Nc2ccc(CS(C)(=O)=O)cc2)n1.Cl [GW811603]
Result: 99.4

Task: Entry to check: Nc1ncnc2scc(-c3ccc(NC(=O)Cc4cc(F)ccc4F)cc3)c12.O=C(O)C(F)(F)F [SB-731254-M]
Result: 16

Task: Entry to check: COC(=O)Nc1nc2cc(Oc3ccc(NC(=O)Nc4cccc(SC)c4)cc3)ccc2[nH]1.Cl [GW697999]
Result: 29

* * *

- System: IKK-epsilon
- Construct: gene IKBKE
- measurementParameters: concentration: 1 μM, replicates: in singlicate; n = 1
quantityKind: %Inh (%)
State just the number; it will be interpreted in %.

Task: Item CN(C)CCNS(=O)(=O)c1ccc(-c2ccnc3[nH]ccc23)cc1 with IKK-epsilon - %Inh?
Result: 2

Task: Entry to check: O=C(Nc1n[nH]c2nc(-c3cccc(O)c3)ccc12)C1CC1
Result: 0

Task: Entry to check: N#CC1(c2cccc(C(=O)Nc3cccc(Oc4ccc5nc(NC(=O)C6CC6)sc5n4)c3)c2)CC1
Result: 0

Task: Entry to check: COc1ccc(C2=C(Nc3cccc(O)c3)C(=O)NC2=O)cc1
Result: 0

Task: Entry to check: O=C(Nc1n[nH]c2nc(-c3ccccc3)ccc12)C1CC1
Result: 37

Task: Entry to check: Cl.O=C(Nc1ccc(Oc2ccc3[nH]c(NC(=O)c4ccco4)nc3c2)cc1)Nc1cc(C(F)(F)F)ccc1F
Result: 0

Task: Entry to check: CN(c1ccc(NC(=O)N2CCN(CCCN3CCOCC3)CC2)cc1)c1ccnc(Nc2ccc(CS(C)(=O)=O)cc2)n1.Cl
Result: 0

Task: Entry to check: COC(=O)Nc1nc2cc(Oc3ccc(NC(=O)Nc4cccc(SC)c4)cc3)ccc2[nH]1.Cl
Result: 10

Task: Entry to check: O=C1NC(=O)C(c2ccccc2Cl)=C1Nc1cccc(Cl)c1
Result: 0

Task: Entry to check: Cc1ccccc1CC(=O)N1CCc2cc(-c3cn(C)c4ncnc(N)c34)ccc21
Result: 49

Task: Entry to check: CN(c1ccc(NC(=O)Nc2cccc(Cl)c2)cc1)c1ccnc(N)n1.Cl
Result: 8

Task: Entry to check: Cc1nn2c(=O)cc(N3CCO[C@H](C)C3)nc2n1Cc1cccc(Cl)c1Cl
Result: 0

Task: Entry to check: COC(=O)Nc1nc2ccc(Oc3ccc(NC(=O)Nc4cc(C(F)(F)F)ccc4F)cc3)cc2[nH]1.Cl
Result: 17

Task: Entry to check: Cc1cc(-c2ccnc(Nc3cccc(C#N)c3)n2)cc(C)c1O
Result: 28

Task: Entry to check: CCn1c(-c2nonc2N)nc2c(-c3ccccc3)ncc(OCCCN)c21.O=C(O)C(F)(F)F.O=C(O)C(F)(F)F
Result: 3
